# System: morningglory
# Assay info: Test A preemergence
# Type: in vivo, Ipomoea spp.
# Condition set: 500 g ai/ha, 0 to 100 scale where 0 is no effect and 100 is complete control
Attribute: Morningglory plant response rating
// no unit, no text: just the number

Cc1cnc(Oc2cccc(C#N)c2-n2cc(C(F)(F)F)cn2)nc1: 100
C[Si](C)(C)C#Cc1cccc(Oc2ncc(Cl)cn2)c1-n1cc(Br)cn1: 0
COc1cnc(Oc2ccccc2-n2cccn2)nc1: 0

Query: Identify measured Morningglory plant response rating corresponding to FC(F)c1cnn(-c2c(Cl)cccc2Oc2ncc(Cl)cn2)c1
Response: 100

Query: Input COC(=O)c1cccc(Oc2ncc(Cl)cn2)c1-n1cc(Br)cn1 , output reported Morningglory plant response rating.
Response: 70

Query: Entry COc1cnn(-c2ccccc2Oc2ncc(Cl)cn2)c1 needs its Morningglory plant response rating filled in; supply it.
Response: 20

###

# System: johnsongrass
# Assay info: Test C postemergence
# Format: in vivo, Sorghum halepense
# Condition set: 16 g ai/ha, postemergence; 0 is no effect, 100 is complete control
Parameter: Plant response rating (0 to 100), Johnsongrass
Output: the number by itself.

N#Cc1cnn(-c2c(Oc3ncc(F)cn3)cccc2C(F)F)c1: 10
Cc1cnc(Oc2cccc(C#N)c2-n2cc(C(F)(F)F)cn2)nc1: 0
Fc1cnc(Oc2cccc(C(F)F)c2-n2cc(C(F)(F)F)cn2)nc1: 0

Query: // Input: FC(F)(F)c1cnn(-c2c(Br)cccc2Oc2ncc(Cl)cn2)c1 . Output its Plant response rating (0 to 100), Johnsongrass only.
Response: 30

Query: Using known records, supply Plant response rating (0 to 100), Johnsongrass for Clc1cnc(Oc2ccccc2-n2cc(I)nn2)nc1
Response: 0

Query: For O=Cc1cccc(Oc2ncc(I)cn2)c1-n1cc(Br)cn1 , write its Plant response rating (0 to 100), Johnsongrass.
Response: 0

###

# System: pigweed
# Assay info: Test A preemergence
# Assay type: in vivo, Amaranthus retroflexus
# Condition set: 125 g ai/ha
As shown below, each of these molecules has a reported Pigweed plant response rating (0 to 100 scale) value.
Response field accepts a number only; no unit should be typed.

These recorded examples may help you get a feel for the data.
N#Cc1cccc(Oc2ncc(Cl)cn2)c1-n1cc(C(F)F)cn1 [Compound 253]: 100
FC(F)c1cccc(Oc2ncc(Cl)cn2)c1-n1cc(C(F)(F)F)cn1 [Compound 170]: 100

Let's switch to this molecule now.
Query: # return recorded Pigweed plant response rating (0 to 100 scale) for input Clc1cnc(Oc2cccc(Br)c2-n2cc(Cl)cn2)nc1 [Compound 221]
Response: 100

###

# Tested on: Italian ryegrass
# Assay info: Test C postemergence
# Type: in vivo, Lolium multiflorum
# Condition set: 16 g ai/ha, postemergence; 0 is no effect, 100 is complete control
Measured Plant response rating (0 to 100), Ryegrass, Italian, listed per entry for reference.

Query: // Input: FCc1cccc(Oc2ncc(Cl)cn2)c1-n1cc(I)cn1 . Output its Plant response rating (0 to 100), Ryegrass, Italian only.
Response: 0

Query: Return Plant response rating (0 to 100), Ryegrass, Italian for the following compound: N#Cc1cnn(-c2c(Br)cccc2Oc2ncc(Cl)cn2)c1
Response: 0

Query: Output measured Plant response rating (0 to 100), Ryegrass, Italian for this item: N#Cc1cn(-c2c(C#N)cccc2Oc2ncc(Cl)cn2)nn1
Response: 5

Query: State its Plant response rating (0 to 100), Ryegrass, Italian for this compound: FC(F)c1cnn(-c2c(Br)cccc2Oc2ncc(Cl)cn2)c1
Response: 0

Query: For the compound FCc1cccc(Oc2ncc(F)cn2)c1-n1cc(I)cn1 , give its measured Plant response rating (0 to 100), Ryegrass, Italian value.
Response: 0

Query: Tell me its Plant response rating (0 to 100), Ryegrass, Italian given Cc1cnc(Oc2cccc(C#N)c2-n2cc(C(F)(F)F)cn2)nc1 as the entry.
Response: 0

###

# Barnyardgrass plant response rating annotations
# Test system: barnyardgrass
# Assay info: Test A postemergence
# Type: in vivo, Echinochloa crus-galli
# Condition set: 125 g ai/ha, 0 to 100 scale where 0 is no effect and 100 is complete control
Quick one: just the number, no unit, thanks!

Here are 2 molecules together with their reported answers.
Clc1cnc(Oc2cccc(Cl)c2-n2cc(I)cn2)nc1: 60
FC(F)c1cccc(Oc2ncc(Br)cn2)c1-n1cc(C(F)(F)F)cn1: 30

Read the next record carefully.
Query: Respond only with Barnyardgrass plant response rating recorded for Clc1cnc(Oc2ccccc2-n2cc(-c3ccccn3)cn2)nc1
Response: 0

###

# Tested on: Heteranthera limosa
# Assay info: Test B flooded paddy test
# Format: in vivo
# Condition set: Flood, 250 g ai/ha; 0 to 100 scale where 0 is no effect and 100 is complete control
Parameter: Plant response rating, Ducksalad

Known Plant response rating, Ducksalad results, listed for orientation:
FCCc1cn(-c2c(F)cccc2Oc2ncc(Cl)cn2)nn1 [Compound 108]: 85
FC(F)Oc1cnn(-c2c(Br)cccc2Oc2ncc(Cl)cn2)c1 [Compound 122]: 80
FC(F)(F)c1cnc(Oc2ccccc2-n2ccc(C(F)(F)F)n2)nc1 [Compound 4]: 0
Fc1cnc(Oc2cccc(Br)c2-n2cc(OCC(F)(F)F)cn2)nc1 [Compound 157]: 80
O=Cc1cn(-c2ccccc2Oc2ncc(Cl)cn2)nn1 [Compound 272]: 0
CCCOc1cnn(-c2c(F)cccc2Oc2ncc(F)cn2)c1 [Compound 153]: 30
CC=Cc1cnn(-c2ccccc2Oc2ncc(Cl)cn2)c1 [Compound 27]: 75
FC(F)(F)Sc1cnn(-c2ccccc2Oc2ncc(Br)cn2)c1 [Compound 246]: 0

Okay, next one:
Query: Report value: Plant response rating, Ducksalad, system: Heteranthera limosa, compound: Clc1cnc(Oc2cccc(Br)c2-n2cc(I)nn2)nc1 [Compound 117]
Response: 40

###

# System: lambsquarters
# Assay info: Test C preemergence
# Assay type: in vivo, Chenopodium album
# Condition set: Preemergence, 31 g ai/ha; scale 0 to 100, 0 no effect, 100 complete control
# Excerpt: […]
Recorded measurements of Plant response rating, Lambsquarters, one per entry
Please state the value as a number alone, without comment.

Cc1cnc(Oc2cccc(C#N)c2-n2cc(C#N)cn2)nc1 [Compound 90]: 98
N#Cc1cnn(-c2c(C#N)cccc2Oc2ncc(Br)cn2)c1 [Compound 135]: 85
CC(C)c1cnn(-c2c(C#N)cccc2Oc2ncc(Cl)cn2)c1 [Compound 85]: 100

# evaluate next
Query: Return the recorded Plant response rating, Lambsquarters value; entry: N#Cc1cccc(Oc2ncc(Cl)cn2)c1-n1cc(Cl)cn1 [Compound 72]
Response: 98

###

# Tested on: giant foxtail
# Assay info: Test A preemergence
# Type: in vivo, Setaria faberii
# Condition set: 31 g ai/ha, 0 to 100 scale where 0 is no effect and 100 is complete control, visual, approximately 10 days
Measured Plant response rating, Foxtail, Giant accompanies every entry in the list below.
Field format: numeric only.

Consider the worked cases shown below.
FCc1cccc(Oc2ncc(F)cn2)c1-n1cc(I)cn1: 10
N#Cc1cnn(-c2c(Br)cccc2Oc2ncc(Cl)cn2)c1: 50

Query: Name the recorded Plant response rating, Foxtail, Giant of the item COc1cccc(Oc2ncc(Cl)cn2)c1-n1cc(Cl)cn1 in your answer.
Response: 30

Query: # return recorded Plant response rating, Foxtail, Giant for entry CC(C)Oc1cnn(-c2c(C#N)cccc2Oc2ncc(Cl)cn2)c1
Response: 60

###

Parameter: Plant response rating, Barnyardgrass. Scope: all listed entries.
# System: barnyardgrass
# Assay info: Test A postemergence
# Format: in vivo, Echinochloa crus-galli
# Condition set: 500 g ai/ha, 0 to 100 scale, 0 no effect, 100 complete control
Kindly provide the number alone.

FC(F)(F)Oc1cccc(Oc2ncc(Cl)cn2)c1-n1cc(Br)cn1: 50

Query: Answer with the recorded Plant response rating, Barnyardgrass of Clc1cnc(Oc2ccccc2-n2cc(-c3ccccc3)cn2)nc1 only.
Response: 70

Query: Fill in Plant response rating, Barnyardgrass for record N#Cc1cccc(Oc2ncc(Br)cn2)c1-n1cc(Cl)cn1
Response: 90

Query: For the compound CC=Cc1cnn(-c2ccccc2Oc2ncc(Cl)cn2)c1 , give its reported Plant response rating, Barnyardgrass.
Response: 10

Query: # return recorded Plant response rating, Barnyardgrass for entry Clc1cnc(Oc2ccccc2-n2ccc(Br)n2)nc1
Response: 40

Query: Give recorded Plant response rating, Barnyardgrass. Cc1cccc(Oc2ncc(Br)cn2)c1-n1cc(Br)cn1
Response: 100

Query: Return Plant response rating, Barnyardgrass (reported value) for this compound: Clc1cnc(Oc2cc(Cl)ccc2-n2cc(Br)cn2)nc1
Response: 10

Query: Input N#Cc1cccc(Oc2ncc(Cl)cn2)c1-n1cc(Cl)cn1 , output reported Plant response rating, Barnyardgrass.
Response: 100

###

# Tested on: barnyardgrass
# Assay info: Test C postemergence
# Assay type: in vivo, Echinochloa crus-galli
# Condition set: 125 g ai/ha, postemergence; visual rating, scale 0 to 100 (0 no effect, 100 complete control)
Item-by-item account of Plant response rating, Barnyardgrass
Reply with just the number.

Some solved cases for reference:
N#Cc1cn(-c2c(C#N)cccc2Oc2ncc(Cl)cn2)nn1: 10
FCc1cn(-c2ccccc2Oc2ncc(Cl)cn2)nn1: 15
Clc1cnc(Oc2cccc(Cl)c2-n2cc(Cl)cn2)nc1: 15
Fc1cnc(Oc2ccccc2-n2cc(C(F)F)cn2)nc1: 5
FC(F)c1cccc(Oc2ncc(Br)cn2)c1-n1cc(C(F)(F)F)cn1: 5

Query: Output reported Plant response rating, Barnyardgrass of the compound FCc1cccc(Oc2ncc(Cl)cn2)c1-n1cc(I)cn1 on barnyardgrass.
Response: 5

Query: Return reported Plant response rating, Barnyardgrass for target or system barnyardgrass, item N#Cc1cnn(-c2c(C#N)cccc2Oc2ncc(Cl)cn2)c1 .
Response: 10

Query: State recorded Plant response rating, Barnyardgrass with barnyardgrass, entry Clc1cnc(Oc2ccccc2-n2cc(Br)nn2)nc1 , no comment.
Response: 5
